Provide the recorded Ki for the entries that follow.
Molecular target: CDK7/cyclinH/MAT1 trimeric complex (Homo sapiens, UniProt P50613)
Sequence (P50613 whole entry): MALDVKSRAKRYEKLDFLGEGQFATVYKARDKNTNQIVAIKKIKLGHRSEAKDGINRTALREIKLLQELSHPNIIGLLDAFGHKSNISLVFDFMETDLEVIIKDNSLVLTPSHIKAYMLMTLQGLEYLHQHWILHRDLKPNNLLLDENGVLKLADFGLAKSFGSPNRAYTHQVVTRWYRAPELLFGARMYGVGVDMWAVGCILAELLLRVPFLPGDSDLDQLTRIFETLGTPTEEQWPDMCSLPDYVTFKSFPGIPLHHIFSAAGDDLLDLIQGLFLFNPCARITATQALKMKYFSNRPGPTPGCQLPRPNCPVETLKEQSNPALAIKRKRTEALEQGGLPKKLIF
Sequence (P51946 whole entry partner): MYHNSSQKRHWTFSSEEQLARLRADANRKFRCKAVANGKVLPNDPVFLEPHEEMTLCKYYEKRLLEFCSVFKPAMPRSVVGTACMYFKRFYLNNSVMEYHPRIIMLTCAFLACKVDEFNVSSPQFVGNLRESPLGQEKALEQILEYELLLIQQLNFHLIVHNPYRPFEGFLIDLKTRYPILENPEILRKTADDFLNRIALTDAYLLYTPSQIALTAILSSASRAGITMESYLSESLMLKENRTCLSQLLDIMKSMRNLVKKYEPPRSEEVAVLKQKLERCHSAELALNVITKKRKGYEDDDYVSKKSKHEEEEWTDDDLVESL
Sequence (P51948 whole entry partner): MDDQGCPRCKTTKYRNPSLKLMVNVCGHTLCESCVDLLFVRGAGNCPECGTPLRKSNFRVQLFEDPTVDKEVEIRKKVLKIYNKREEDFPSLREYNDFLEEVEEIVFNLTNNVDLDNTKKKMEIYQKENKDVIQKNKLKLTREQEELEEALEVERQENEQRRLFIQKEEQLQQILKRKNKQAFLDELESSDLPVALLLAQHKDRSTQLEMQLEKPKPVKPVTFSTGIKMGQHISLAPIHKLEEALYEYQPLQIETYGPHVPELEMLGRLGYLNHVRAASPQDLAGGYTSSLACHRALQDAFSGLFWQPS
Test: In vitro CDK7 assay, potency of irreversible covalent inhibitors (kinact/KI), coupled PK/LDH ADP readout at 340 nm
Conditions: CDK7 (20 nM enz.) (KI, μM), 20 nM enzyme
Answer in µM, number only, no unit symbol.

Input: In one line, give reported Ki of the entry CC#CC(=O)N1CC[C@H](N2CCC(c3cc4c(c(C)n3)OCc3c(N5CCOCC5)ccnc3N4)CC2)C1 (single isomer, unassigned) .
Output: 0.277

Input: Let me know recorded Ki for C=CC(=O)N1CC[C@@H](N2CC(c3cc4c(c(C(F)(F)F)n3)OCc3c(N5CCOCC5)ccnc3N4)C2)C1 (single isomer, unassigned) [Compound 241] , thanks.
Output: 0.0269

Input: Supply recorded Ki for C=CC(=O)N1CC(N2CC(c3cc4c(cn3)O[C@H](C)c3c(-c5cnn(C)c5)ccnc3N4)C2)C1 (single isomer, unassigned) here.
Output: 0.0688

The values you see were collected from patent US20240254138A1.
